This collection of values is drawn from patent US7473790B2.

target_entity: HCV polymerase (Hepatitis C virus genotype 1b, UniProt P26663)
Construct: 2.5 pmoles (0.15 μg) HCV polymerase protein in a final volume of 75 μL
Sequence (P26663 2420-3010): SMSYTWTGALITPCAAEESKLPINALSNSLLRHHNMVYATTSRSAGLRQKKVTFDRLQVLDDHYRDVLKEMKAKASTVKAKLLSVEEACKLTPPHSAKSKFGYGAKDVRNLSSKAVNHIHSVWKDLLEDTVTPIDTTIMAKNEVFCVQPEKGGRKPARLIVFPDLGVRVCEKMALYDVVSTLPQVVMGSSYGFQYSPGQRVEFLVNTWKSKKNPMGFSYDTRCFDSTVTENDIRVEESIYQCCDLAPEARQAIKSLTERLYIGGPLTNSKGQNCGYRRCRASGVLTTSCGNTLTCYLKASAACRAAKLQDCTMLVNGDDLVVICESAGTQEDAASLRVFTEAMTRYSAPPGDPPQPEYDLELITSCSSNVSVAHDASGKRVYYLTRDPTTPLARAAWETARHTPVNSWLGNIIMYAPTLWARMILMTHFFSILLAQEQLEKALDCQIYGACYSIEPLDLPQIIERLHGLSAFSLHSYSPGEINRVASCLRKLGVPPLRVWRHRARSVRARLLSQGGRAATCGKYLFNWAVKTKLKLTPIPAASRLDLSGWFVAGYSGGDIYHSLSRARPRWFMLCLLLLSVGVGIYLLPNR
run_description: HCV polymerase primer/template-directed transcription assay (32P-GTP incorporation, filter binding)
Type: biochemical
measurement_conditions: @ 20 uM compound; given where IC50 was impractical to calculate; read-out: percent inhibition
value_type: inhibition at 20 µM

Please look up its inhibition at 20 µM: COc1ccc(CCC2(C3CCCC3)CC(OCc3cccnc3)=CC(=O)O2)cc1Cl (stereo not shown) 16%

Entry under review: CCC1(CCc2ccc(OC)cc2)CC(O)=C(Sc2nc3cc(Cl)ccc3n2C(C)C)C(=O)O1 (stereo not shown) . Reported inhibition at 20 µM? 22%

Any idea what its inhibition at 20 µM is? The compound is COC(=O)Cc1cccc(CCC2(C3CCCC3)CC(=O)CC(=O)O2)c1 (stereo not shown) 24%

Look at this compound and give its reported inhibition at 20 µM. CCC1(CCc2ccc(OC)cc2)CC(O)=C(Sc2nc3nc(C)cc(C)n3n2)C(=O)O1 (stereo not shown) 8%

Entry under review: COc1ccc(CCC2(C3CCCC3)CC(OCc3ccccn3)=CC(=O)O2)cc1Cl (stereo not shown) . Reported inhibition at 20 µM? 3%

Need inhibition at 20 µM, item CC(C)Oc1ccc(CCC2(C3CCCC3)CC(O)=C(Cc3nc4ccccc4n3C)C(=O)O2)cc1Cl (stereo not shown) 47%

Need inhibition at 20 µM of O=C1CC(=O)OC(CCc2ccccn2)(C2CCCC2)C1 (stereo not shown) , thanks. 11%

====

target_entity: HCV polymerase (Hepatitis C virus genotype 1b, UniProt P26663)
Construct: 2.5 pmoles (0.15 μg) HCV polymerase protein in a final volume of 75 μL
run_description: HCV polymerase primer/template-directed transcription assay (32P-GTP incorporation, filter binding)
Type: biochemical
measurement_conditions: recombinant HCV polymerase; 30 minutes at 30° C.; concentration giving 50% inhibition of polymerase-directed transcription; read-out: IC50
value_type: pIC50
Lab note — pIC50 values are minus log10 of concentrations in M.

Give its pIC50 value. Item: Cc1cc(C)n2nc(CC3C(=O)CC(CCc4cccc(Cl)c4)(C4CCCC4)OC3=O)nc2n1 (stereo not shown) 7.14

# pIC50 lookup, item Cc1cc(C)n2nc(CC3C(=O)CC(CCc4ccc(C(C)C)cc4)(C4CCCC4)OC3=O)nc2n1 (stereo not shown) 7.05

For the molecule shown here, N#CC1(c2ccc(CCC3(C4CCCC4)CC(O)=C(Cc4nc5ncc(Cl)cn5n4)C(=O)O3)cc2F)CCCC1 (stereo not shown) , give the reported pIC50. 7.77

Any idea what its pIC50 is? The molecule is Cc1cnc2nc(CC3=C(O)CC(CCc4cc(F)c(C(C)(C)C#N)c(F)c4)(C4CCCC4)OC3=O)nn2c1 (single isomer, unassigned; (-)) [A(258)] 8.70

What does the record list as pIC50 for COc1cc(OC)c(CCC2(C3CCCC3)CC(O)=C(Sc3nnc(C)n3C)C(=O)O2)cc1Cl (stereo not shown) ? 7.66

Look at this molecule and give its reported pIC50. Cc1cc(C)n2nc(CC3=C(O)CC(CCc4ccc(OCC5CC5)c(Cl)c4)(C4CCCC4)OC3=O)nc2n1 (stereo not shown) 7.96

// returns reported pIC50 for input CCOc1ccc(CCC2(C3CCCC3)CC(O)=C(Cc3nc4nc(C)cc(C)n4n3)C(=O)O2)cc1F (stereo not shown) 7.57

Give its pIC50 value. Item: CC(C)Oc1ccc(CCC2(C3CCCC3)CC(O)=C(Sc3nc4cc(Cl)ccc4n3C(C)C)C(=O)O2)cc1Cl (stereo not shown) 7.70

Param item = COc1ccc(CCC2(C3CCCC3)CC(O)=C(Sc3nncn3C(C)(C)C)C(=O)O2)cc1Cl (stereo not shown) ; retrieve measured pIC50. 7.28

What pIC50 value was documented for this molecule, CCC(C#N)(CC)c1c(F)cc(CCC2(C3CCCC3)CC(O)=C(Cc3nc4ncc(C)cn4n3)C(=O)O2)cc1F (racemic) [A(262)] ? 8.22

So what does the record say about pIC50 for N#CCc1cccc(CCC2(C3CCCC3)CC(=O)CC(=O)O2)c1 (stereo not shown) ? 5.03

Item CCc1cc(CCC2(C3CCCC3)CC(O)=C(Cc3nc4ncc(C)cn4n3)C(=O)O2)ccc1O (stereo not shown) has what recorded pIC50? 8.05

Can you look up the measured pIC50 of CCc1cc(CCC2(C3CCCC3)CC(O)=C(Cc3nc4ncc(Cl)cn4n3)C(=O)O2)ccc1O (stereo not shown) [A(127)] for me? 8.30

What value of measured pIC50 is listed for COC(=O)CC(=O)CC(=O)C(C)(C)Oc1ccc(CCC2(C3CCCC3)CC(=O)CC(=O)O2)cc1F (stereo not shown) ? 5.82

Need pIC50 of CC(C)(C#N)c1ccc(CCC2(C3CCCC3)CC(O)=C(Cc3nc4ncc(Cl)cn4n3)C(=O)O2)cc1Cl (single isomer, unassigned) [A(205)] , thanks. 9.00

So what's the measured pIC50 for this one? CCc1cc(CCC2(C3CCCC3)CC(O)=C(Cc3nc4nc(C)cc(C)n4n3)C(=O)O2)c(OC)cc1O (stereo not shown) [A(150)] 8.15

// lookup pIC50 for N#CC1(c2c(F)cc(CCC3(C4CCCC4)CC(=O)CC(=O)O3)cc2F)CC1 (stereo not shown) 5.72

Tell me the measured pIC50 of COc1ccc(CC2=C(O)CC(CCc3ccc(OC)c(Cl)c3)(C3CCCC3)OC2=O)cc1 (stereo not shown) , please. 5.96

pIC50 for Cc1cc(C)n2nc(CC3=C(O)CC(CCc4ccc(Cl)c(Cl)c4)(C4CCCC4)OC3=O)nc2n1 (stereo not shown) ? 7.68

Give its pIC50 value. Item: CCCc1cc(CCC2(C3CCCC3)CC(O)=C(Cc3nc4nc(C)cc(C)n4n3)C(=O)O2)ccc1O (stereo not shown) 8.70

GET /values?readout=pIC50&item= COCc1cc(CCC2(C3CCCC3)CC(O)=C(Cc3nc4nc(C)cc(C)n4n3)C(=O)O2)ccc1O (stereo not shown) 7.55

Fill in: pIC50 of COc1ccc(CCC2(C3CCCC3)CC(=O)C(Cc3ccccc3)C(=O)O2)cc1 (stereo not shown) is ___ 5.26

Endpoint output: pIC50 of C[C@@H](O)c1ccc(CCC2(C3CCCC3)CC(O)=C(Cc3nc4ncc(Cl)cn4n3)C(=O)O2)cc1F (stereo in doubt) . Value? 7.96

Report pIC50 for COc1ccc(CCC2(C3CCCC3)CC(O)=C(Sc3nc4cncnc4[nH]3)C(=O)O2)cc1Cl (stereo not shown) please. 7.27

Item under review: CC(C)(C#N)c1ccc(CCC2(C3CCCC3)CC(O)=C(Cc3cn4ccccc4n3)C(=O)O2)cc1F (stereo not shown) . Reported pIC50? 6.74

pIC50 for CC(C)(C#N)c1c(F)cc(CCC2(C3CCCC3)CC(O)=C(Cc3nc4ncc(Cl)cn4n3)C(=O)O2)cc1F (single isomer, unassigned; (+)) [A(259)] ? 8.22

Record request: pIC50 value, item CC(C)(C)c1cc(CCC2(C3CCCC3)CC(=O)CC(=O)O2)ccc1O (stereo not shown) 5.62

Field request: pIC50 | item: COc1ccc(CCC2(C3CCCC3)CC(=O)C(Cc3ccncc3)C(=O)O2)cc1Cl (stereo not shown) 6.17

Value lookup for pIC50; key = Cc1cc(C)n2nc(CC3=C(O)CC(CCc4ccc(OC(C)C)cc4)(C4CCCC4)OC3=O)nc2n1 (stereo not shown) 7.52

I'd like to know its pIC50. The molecule in question is CCc1cccc(CCC2(C3CCCC3)CC(O)=C(Cc3nc4nc(C)cc(C)n4n3)C(=O)O2)c1 (single isomer, unassigned) [J(7)] 8.00

Value lookup for pIC50; key = CCc1ccc(O)c(CCC2(C3CCCC3)CC(O)=C(Cc3nc4ncccn4n3)C(=O)O2)c1 (stereo not shown) 8.22

====

Provide the recorded pIC50 for the entries that follow.
target_entity: HCV polymerase (Hepatitis C virus genotype 1b)
Construct: 2.5 pmoles (0.15 μg) HCV polymerase protein in a final volume of 75 μL
run_description: HCV polymerase primer/template-directed transcription assay (32P-GTP incorporation, filter binding)
Format: biochemical
measurement_conditions: recombinant HCV polymerase; 30 minutes at 30° C.; concentration giving 50% inhibition of polymerase-directed transcription; read-out: IC50
Scale for pIC50: -log10 of concentration given in mol/L; no unit attached.

Dear colleague, I am looking for the recorded pIC50 of the following compound: COc1ccc(CCC2(C3CCCC3)CC(O)=C(Cc3nc4nc(C)cc(C)n4n3)C(=O)O2)c(OC)c1 (stereo not drawn) 6.95

So what does the record say about pIC50 for COc1ccc(CCC2(C3CCCC3)CC(O)=C(Cc3cc(=O)n4c(C)csc4n3)C(=O)O2)cc1 (stereo not drawn) ? 6.92

Fill in the blank: the reported pIC50 of COC(=O)Nc1cc(CC2=C(O)CC(CCc3ccc(OC)cc3)(C3CCCC3)OC2=O)on1 (stereo not drawn) is ____. 6.27

Quick check: pIC50 of CNC(=O)c1ccc(CCC2(C3CCCC3)CC(=O)CC(=O)O2)cc1F (stereo not drawn) ? 4.78

Entry COc1ccc(CCC2(C3CCCC3)CC(O)=C(Cc3ccc(-n4cncn4)cc3)C(=O)O2)cc1Cl (stereo not drawn) has what pIC50? 6.62

Can you share its pIC50? I mean this compound: Cc1csc2nc(CC3=C(O)CC(CCc4ccc(C(F)F)c(F)c4)(C4CCCC4)OC3=O)cc(=O)n12 (stereo not drawn) 6.73

What measured pIC50 goes with Cc1cc(C#CCCC2(C3CCCC3)CC(=O)CC(=O)O2)c(C)cc1O (stereo not drawn) ? 5.14

Value lookup for pIC50; key = O=C1CC(=O)OC(CCc2ccc(O)c(C3CCCC3)c2)(C2CCCC2)C1 (stereo not drawn) 5.55

I have this compound here, Cc1cc(C)n2nc(CC3=C(O)CC(CCc4ccc(O)c(F)c4)(C4CCCC4)OC3=O)nc2n1 (stereo not drawn) , and I need its recorded pIC50. 7.34

GET /values?readout=pIC50&item= COc1ccc(CCC2(C3CCCC3)CC(O)=C(Sc3ncccc3C#N)C(=O)O2)cc1Cl (stereo not drawn) 5.89

# get_value(readout='pIC50', item= Cc1cnc2nc(CC3=C(O)CC(CCc4ccc(C5(C#N)CCCC5)c(F)c4)(C4CCCC4)OC3=O)nn2c1 (stereo not drawn) ) 7.96

For CCc1cc(CCC2(C3CCCC3)CC(O)=C(Cc3nc4ncc(Cl)cn4n3)C(=O)O2)c(OC)cc1O (racemic) [A(211)] , what is its reported pIC50? 8.40

Need pIC50, item C=CCC1C(=O)CC(CCc2ccc(OC)c(Cl)c2)(C2CCCC2)OC1=O (stereo not drawn) 5.62

State the recorded pIC50 for this entry: O=C1CC(=O)OC(CCc2ccc(CCO)c(F)c2)(C2CCCC2)C1 (stereo not drawn) 4.89

pIC50 for N#Cc1cccc(-c2ccc(CCC3(C4CCCC4)CC(=O)CC(=O)O3)cc2)c1 (stereo not drawn) ? 4.52

Consider the compound O=C1CC(=O)OC(CCC#Cc2ccccc2OC(F)(F)F)(C2CCCC2)C1 (stereo not drawn) and give its measured pIC50. 5.24

Consider the compound CNC(=O)C(C)(C)c1ccc(CCC2(C3CCCC3)CC(=O)CC(=O)O2)cc1 (stereo not drawn) and give its measured pIC50. 5.05

May I ask what pIC50 has been recorded for CCc1ccc(O)c(CCC2(C3CCCC3)CC(O)=C(Cc3nc4nc(C)cc(C)n4n3)C(=O)O2)c1 (single isomer, unassigned; enantiomer 1) [A(167)] ? 8.40

Which pIC50 reading was recorded for the compound Cc1cc(CCC2(C3CCCC3)CC(=O)CC(=O)O2)ccc1OC(C)C (stereo not drawn) ? 5.25

Bench note: what pIC50 did Cc1ccc(-c2ccc(CCC3(C4CCCC4)CC(=O)CC(=O)O3)cc2F)s1 (stereo not drawn) show? 4.74

// returns reported pIC50 for input CCOc1ccc(CCC2(C3CCCC3)CC(O)=C(Cc3nc4nc(C)cc(C)n4n3)C(=O)O2)cc1CC (stereo not drawn) 6.46

Field request: pIC50 | item: CCc1cc(CCC2(C3CCCC3)CC(O)=C(Cc3nc4ncc(C)cn4n3)C(=O)O2)ccc1OCCOC (stereo not drawn) 8.10

Can you share its pIC50? I mean this compound: N#CCC(=O)c1ccc(C#CC2(C3CCCC3)CC(=O)CC(=O)O2)s1 (stereo not drawn) 5.09

Which value of pIC50 has been reported for COc1cc(OC)c(CCC2(C3CCCC3)CC(O)=C(Sc3ncc(-c4cccnc4)[nH]3)C(=O)O2)cc1Cl (stereo not drawn) in the records? 7.21

Tell me the measured pIC50 of Cc1cc(C)n2nc(SC3=C(O)CC(CCc4ccc(-c5c(C)noc5C)cc4)(C4CCCC4)OC3=O)nc2n1 (stereo not drawn) , please. 7.80

Record request: pIC50 value, item COc1ccc(CCC2(C3CCCC3)CC(O)=C(Cc3ccc(-n4cccn4)cc3)C(=O)O2)cc1Cl (stereo not drawn) 6.85

Give the measured pIC50 of COC(=O)C(C)(C)c1ccc(CCC2(C3CCCC3)CC(O)=C(Cc3nc4ncc(C)cn4n3)C(=O)O2)cc1F (stereo not drawn) . 7.43

Request the reported pIC50 associated with CC(C)(C#N)c1ccc(CCC2(C3CCCC3)CC(O)=C(Cc3cnc4ncccn34)C(=O)O2)cc1F (stereo not drawn) 6.92

Which pIC50 is reported for this compound? CCc1cc(CCC2(C3CCCC3)CC(O)=C(Cc3nc4nc(C)cc(C)n4n3)C(=O)O2)ccc1OCCNC(C)=O (stereo not drawn) 8.70

Quick one: pIC50 for COc1ccc(CCC2(C3CCCC3)CC(O)=C(Cc3nc4nc(C)cc(C)n4n3)C(=O)O2)cc1F (stereo not drawn) ? 7.82

Quick one: pIC50 of NS(=O)(=O)c1cccc(C#CCCC2(C3CCCC3)CC(=O)CC(=O)O2)c1 (stereo not drawn) ? 5.14

Which pIC50 is listed for COc1ccc(CCC2(C3CCCC3)CC(O)=C(Cc3nc4cc(Cl)ccc4n3C)C(=O)O2)cc1Cl (stereo not drawn) ? 6.44

Field request: pIC50 | item: CCCOc1ccc(CCC2(C3CCCC3)CC(O)=C(Cc3nc4nc(C)cc(C)n4n3)C(=O)O2)cc1 (stereo not drawn) 6.92
